Listed binders paired with reported pKd
- test-system: Cdc42 Δ7 Q61L (UniProt P60953)
- procedure-details: scintillation proximity assay (competition); 30 nM GST-WT ACK GBD immobilised on protein A SPA fluoromicrospheres via an anti-GST antibody, 30 nM [3H]GTP-Cdc42; increasing concentrations of GST-cleaved ACK variant; pure competition model, apparent Kd (Ki)
As a rule, pKd stands for the negative log10 of the concentration, concentration in M.

>  <binder>
GLSAQDISQPLQNSAIHTGHGDSDPRHCWGFPDRIDELYLGN (domain or fragment) [ACK GBD F462A, cleaved from GST]

>  <endpoint-result>
5.46

$$$$

Prompt line: Fill in: pKd of GLSAQDISQPLQNSFIHTGHGDSDPRHCWGFPDRIDELYLGN (domain or fragment) [ACK GBD wild type, ACK(448-489), cleaved from GST] is ___
Response line: 7.70

Prompt line: Fill in: pKd of GLSAQDISQPLQNAFIHTGHGDSDPRHCWGFPDRIDELYLGN (domain or fragment) [ACK GBD S461A, cleaved from GST] is ___
Response line: 5.38

These data points were gathered from paper PMC5500802.
